Here the recorded inhibition at 1 µM is given for each entry.
Biological target: cathepsin B (Homo sapiens, UniProt P07858)
Construct: purchased Calbiochem 219364
Experiment: Inhibition of cathepsin B
Format: biochemical
Details: Table III; 1 uM; read-out: Cat B % I @ 1 uM
Procedure: Additionally,the order of reagents added to the plate was altered because both enzymes are constitutively active. Following inhibitor addition to the plates, appropriate 2× concentrated stock dilutions of the enzyme preparations were made in assay buffer and 100 μl added to each well. The assay was initiated by addition of 100 μl of 2× concentrated stock dilution of substrate in assay buffer.
Square brackets hold non-standard residues; d marks the D form. Peptide text beside a SMILES is read from it. * marks the point of attachment. Tle = CC(C)(C)[C@H](N)C(=O)O; Tos = Cc1ccc(S(=O)(=O)*)cc1; Bn = c1ccc(C*)cc1; Ms = CS(=O)(=O)*

{"columns": ["COMPOUND", "SUBJECT OF TEST", "inhibition at 1 µM / %"],
 "data": [
  ["CC(C)(C)[C@@H](C=O)NC(=O)[C@@H](COCc1ccccc1)NS(C)(=O)=O [Compound 111] (Ms-[dS](Bn)-[Tle]-aldehyde)", "cathepsin B (Homo sapiens, UniProt P07858)", 10],
  ["Cc1ccc(S(=O)(=O)N[C@H](Cc2ccccc2)C(=O)N[C@H](C=O)Cc2ccccc2)cc1 [Compound 61] (Tos-[dF]-Phe-aldehyde)", "cathepsin B (Homo sapiens, UniProt P07858)", 100],
  ["Cc1ccc(S(=O)(=O)N2CCC[C@@H]2C(=O)N[C@H](C=O)Cc2ccccc2)cc1 [Compound 120] (Tos-[dP]-Phe-aldehyde)", "cathepsin B (Homo sapiens, UniProt P07858)", 50],
  ["CC(C)C[C@@H](C=O)NC(=O)[C@@H](COCc1ccccc1)NS(C)(=O)=O [Compound 88] (Ms-[dS](Bn)-Leu-aldehyde)", "cathepsin B (Homo sapiens, UniProt P07858)", 88],
  ["CS(=O)(=O)N1CCC[C@@H]1C(=O)N[C@H](C=O)Cc1ccccc1 [Compound 101] (Ms-[dP]-Phe-aldehyde)", "cathepsin B (Homo sapiens, UniProt P07858)", 46],
  ["Cc1ccc(S(=O)(=O)N2C[C@@H](N=[N+]=[N-])C[C@@H]2C(=O)N[C@H](C=O)Cc2ccccc2)cc1", "cathepsin B (Homo sapiens, UniProt P07858)", 24],
  ["CS(=O)(=O)N[C@H](COCc1ccccc1)C(=O)N[C@@H](C=O)Cc1ccccc1", "cathepsin B (Homo sapiens, UniProt P07858)", 22]
]}
